measurement protocol: Concentration required to stimulate pregnenolone formation in the mitochondria of C6-2B glioma cells.
Type: functional, Rattus norvegicus
readout name: EC50 (nM)
Numbers only; they are read as nM.

Please look at this compound and report its EC50: CCCCCCN(CCCCCC)C(=O)Cc1c(-c2ccc(F)cc2)[nH]c2ccccc12
3
